assay: Measurement of logP values by HPLC on reversed phase columns (EEC directive 79/831 Annex V.A8); format: physicochemical; conditions: pH 2.7
readoutName: logP

In: For the molecule shown here, CN(CC1CC1)C(=O)c1cc(-c2ncnc(Nc3cccc(C(F)(F)F)c3)n2)ccn1 , give the reported logP.
Out: 3.33

In: Next entry: Clc1cccc(Nc2ncnc(-c3ccnc(C4=NOCCO4)c3)n2)c1
Out: 2.63

In: Can you handle CCN(C)C(=O)c1cc(-c2ncnc(Nc3cccc(C(C)C)c3)n2)ccn1 next?
Out: 3.11

In: Another: COCCN(C)C(=O)c1cc(-c2ncnc(Nc3cccc(OC(F)(F)F)c3)n2)ccn1
Out: 2.86

In: Thanks! And COC(=O)c1cc(-c2ncnc(Nc3cccc(Cl)c3)n2)ccn1 ?
Out: 2.79

In: Another molecule: C=CCON=C(CC)c1cc(-c2ncnc(Nc3cccc(Cl)c3)n2)ccn1 (mixture of isomers)
Out: 5.14

In: Request: CSc1cccc(Nc2ncnc(-c3ccnc(C(=O)NC4CCC4)c3)n2)c1
Out: 3.73

In: And what about the molecule COc1cccc(Nc2ncnc(-c3ccnc(C(=O)N(C)CC4CC4)c3)n2)c1F ?
Out: 2.7

1: CCC(=NOCc1c(Cl)cccc1Cl)c1cc(-c2ncnc(Nc3cccc(Cl)c3)n2)ccn1 (mixture of isomers)
2: CCN(CC)CC(C)NC(=O)c1cc(-c2ncnc(Nc3cccc(Cl)c3)n2)ccn1 (stereo not shown)
3: Cc1ccc(Nc2ncnc(-c3ccnc(C(=O)N(C)C(C)C)c3)n2)cc1Cl
In: Rank descending by logP. Provide your answer as the labels ordered per the instruction.
Out: 1, 3, 2

---

experiment: Measurement of logP values by HPLC on reversed phase columns (EEC directive 79/831 Annex V.A8); format: physicochemical; conditions: pH 7.8
Marks after values point to notes of the source that are not given here.
Listing of entries alongside the reported logP.

In: Entry COC(=O)c1cc(-c2ncnc(Nc3ccc(OC)c(OC)c3)n2)ccn1 has what logP?
Out: 2.02^[c]

In: Do the same for CCCN(CCC)C(=O)c1cc(-c2ncnc(Nc3ccc(OC)nc3)n2)ccn1 please
Out: 2.77^[c]

In: Moving on to C=CCN(CC=C)C(=O)c1cc(-c2ncnc(Nc3ccc(OC)nc3)n2)ccn1
Out: 2.58^[c]

---
In: Look up logP for this molecule: CCCN(CCC)C(=O)c1cc(-c2ccnc(Nc3ccnc(Cl)c3)n2)ccn1
Out: 2.88^[c]

In: Repeat with CCN(OC)C(=O)c1cc(-c2ncnc(Nc3ccsc3)n2)ccn1
Out: 2.33^[c]

In: Note, next up: CCN(CC)C(=O)c1cc(-c2ncnc(Nc3ccc(OC)nc3)n2)ccn1
Out: 2.11^[c]

---

test: Measurement of logP values by HPLC on reversed phase columns (EEC directive 79/831 Annex V.A8); assay type: physicochemical; conditions: pH 2.7
readoutName: logP

In: Find the recorded logP belonging to O=C(c1cc(-c2ncnc(Nc3cccc(Cl)c3)n2)ccn1)N1CCCCC1 and report it.
Out: 3.1

In: Further, for CCC(=NOCCN(C)C)c1cc(-c2ncnc(Nc3cccc(Cl)c3)n2)ccn1 (mixture of isomers) ?
Out: 2.06

In: Param item: CN(CC(F)F)C(=O)c1cc(-c2ncnc(Nc3ccc(F)c(F)c3)n2)ccn1
Out: 2.86

In: Same again, this time with CCCN(C)C(=O)c1cc(-c2ncnc(Nc3ccc(C)c(Cl)c3)n2)ccn1
Out: 3.42
